These measurements were taken from patent US10556907B2.

target: human S1PR1 receptor (Homo sapiens, UniProt P21453); experiment: Method 1: intracellular Ca2+ release (FLIPR, Calcium 5) in recombinant CHO-K1 cells; conditions: (1): determined with method 1; read-out: S1P1 EC50
Sequence (P21453 whole entry): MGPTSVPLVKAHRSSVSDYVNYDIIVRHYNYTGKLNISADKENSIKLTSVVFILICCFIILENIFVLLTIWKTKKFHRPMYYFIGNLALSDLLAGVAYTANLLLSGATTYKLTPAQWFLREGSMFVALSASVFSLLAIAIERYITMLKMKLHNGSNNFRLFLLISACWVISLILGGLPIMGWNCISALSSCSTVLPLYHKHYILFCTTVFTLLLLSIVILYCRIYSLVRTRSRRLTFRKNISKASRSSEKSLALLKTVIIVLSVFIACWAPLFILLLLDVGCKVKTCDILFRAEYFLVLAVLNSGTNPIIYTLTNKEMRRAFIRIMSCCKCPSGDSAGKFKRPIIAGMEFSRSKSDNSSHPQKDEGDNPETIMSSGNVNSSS
Collected EC50 values appear next to each entry.

Some solved entries appear below for comparison.
- compound: "O=C(O)CCCN1CCc2nc(-c3ccc(OCc4ccccc4)cc3)ccc2C1"
  EC50: "> 1 µM"
- compound: "CC(CC(=O)O)CN1CCc2nc(-c3ccc(OCc4cccc(F)c4F)cc3)ncc2C1 (stereo not shown)"
  EC50: "< 1 µM"
- compound: "Cc1ccccc1COc1ccc(-c2ncc3c(n2)CCN(C[C@H](C)CC(=O)O)C3)cc1C"
  EC50: "> 1 µM"

// `Cc1cc(OC(F)(F)F)ccc1COc1ccc(-c2ncc3c(n2)CCN(CCC(=O)O)C3)cc1` : EC50 value = < 1 µM

---

Collected EC50 values appear next to each entry.
target: UniProt P21453; assay: Method 1: intracellular Ca2+ release (FLIPR, Calcium 5) in recombinant CHO-K1 cells; settings: (1): determined with method 1; read-out: S1P1 EC50

- compound: "O=C(O)CCN1CCc2nc(-c3ccc(OCc4cccc(F)c4F)cc3)c(F)cc2C1"
  measurement: "< 1000 nM"
- compound: "CC(CC(=O)O)CN1Cc2cnc(-c3ccc(OCc4ccc(Cl)cc4)cc3)nc2CC1(C)C (centres unmarked)"
  measurement: "> 1000 nM"
- compound: "Cc1cc(-c2ncc3c(n2)CCN(CC(C)CC(=O)O)C3)ccc1OCc1cccc(Cl)c1 (centres unmarked)"
  measurement: "> 1000 nM"
- compound: "O=C(O)C1CC(N2CCc3nc(C#Cc4cccc(Cl)c4)ccc3C2)C1 (centres unmarked)"
  measurement: "> 1000 nM"
- compound: "CCc1cccc(Cl)c1COc1ccc2c(n1)CCN(C1CC(C(=O)O)C1)C2 (centres unmarked)"
  measurement: "> 1000 nM"

// `O=C(O)CN1CCc2nc(-c3ccc(OCc4cc(F)cc(F)c4)cc3)ncc2C1` : EC50 value = > 1000 nM

// CC(CC(=O)O)CN1CCc2nc(-c3ccc(OCc4ccc(Cl)cc4)cc3)ncc2C1 (centres unmarked) [Compound 259] : EC50 value = > 1000 nM

// CC(CCN1CCc2nc(-c3ccc(OCc4cccc(Cl)c4)cc3)c(F)cc2C1)C(=O)O (centres unmarked) : EC50 value = > 1000 nM

// `O=C(O)CCN1CCc2nc(-c3ccc(OCc4cccc(Cl)c4)cc3)c(F)cc2C1` : EC50 value = > 1000 nM

// `O=C(O)CCN1CCc2nc(-c3ccc(OCc4ccc(C(F)(F)F)cc4)cc3)c(F)cc2C1` : EC50 value = < 1000 nM

// `O=C(O)CCN1CCc2nc(-c3ccc(OCc4ccc(Cl)cc4)cc3)ncc2C1` : EC50 value = > 1000 nM

// `O=C(O)CCN1CCc2nc(-c3ccc(OCc4ccccc4C(F)F)cc3)ncc2C1` : EC50 value = > 1000 nM

// CC(CC(=O)O)CN1CCc2nc(-c3ccc(CCc4ccccc4)cc3F)ncc2C1 (centres unmarked) : EC50 value = > 1000 nM

---

biological target: human S1PR1 receptor (Homo sapiens, UniProt P21453); assay: Method 1: intracellular Ca2+ release (FLIPR, Calcium 5) in recombinant CHO-K1 cells; conditions: (1): determined with method 1; read-out: S1P1 EC50
pEC50: −log10 of the molar value.
measurementKind: pEC50

- molecule: "CC(CC(=O)O)CN1CCc2nc(-c3ccc(C(F)Cc4ccc(Cl)cc4F)cc3)ncc2C1 (centres unmarked)"
  measurementTarget: "human S1PR1 receptor (Homo sapiens, UniProt P21453)"
  measurementKind: "pEC50"
  measurement: "< 6.00"
- molecule: "O=C(O)CCN1CCc2cc(-c3ccc(OCc4cccc(F)c4)cc3)ncc2C1"
  measurementTarget: "human S1PR1 receptor (Homo sapiens, UniProt P21453)"
  measurementKind: "pEC50"
  measurement: "< 6.00"
- molecule: "CC(CN1CCc2nc(-c3ccc(OCc4ccc(Cl)cc4)cc3)ncc2C1)C(=O)O (centres unmarked)"
  measurementTarget: "human S1PR1 receptor (Homo sapiens, UniProt P21453)"
  measurementKind: "pEC50"
  measurement: "< 6.00"
- molecule: "O=C(O)CN1CCc2nc(-c3ccc(OCc4ccccc4)cc3)ncc2C1"
  measurementTarget: "human S1PR1 receptor (Homo sapiens, UniProt P21453)"
  measurementKind: "pEC50"
  measurement: "< 6.00"
- molecule: "CC(CC(=O)O)CN1CCc2nc(-c3ccc(OCc4cccc(Cl)c4Cl)cc3)ncc2C1 (centres unmarked)"
  measurementTarget: "human S1PR1 receptor (Homo sapiens, UniProt P21453)"
  measurementKind: "pEC50"
  measurement: "< 6.00"

// `O=C(O)CCN1CCc2nc(-c3ccc(OCc4cccc(F)c4)cc3)ccc2C1` : pEC50 value = < 6.00

// `O=C(O)CCN1CCc2nc(-c3ccc(OCc4cccc(C(F)F)c4)cc3)ccc2C1` : pEC50 value = < 6.00

// CC(C(=O)O)N1CCc2nc(-c3ccc(OCc4cc(F)cc(F)c4)cc3)ncc2C1 (centres unmarked) : pEC50 value = < 6.00

---

molecular target: human S1PR5 receptor (Homo sapiens, UniProt Q9H228); construct: host or cells: CHO-K1; experiment: Method 1: intracellular Ca2+ release (FLIPR, Calcium 5) in recombinant CHO-K1 cells; type: cell-based; conditions: agonist potency, determined with method 1 (symbols A-D); read-out: S1P5 EC50 range
Sequence (Q9H228 whole entry): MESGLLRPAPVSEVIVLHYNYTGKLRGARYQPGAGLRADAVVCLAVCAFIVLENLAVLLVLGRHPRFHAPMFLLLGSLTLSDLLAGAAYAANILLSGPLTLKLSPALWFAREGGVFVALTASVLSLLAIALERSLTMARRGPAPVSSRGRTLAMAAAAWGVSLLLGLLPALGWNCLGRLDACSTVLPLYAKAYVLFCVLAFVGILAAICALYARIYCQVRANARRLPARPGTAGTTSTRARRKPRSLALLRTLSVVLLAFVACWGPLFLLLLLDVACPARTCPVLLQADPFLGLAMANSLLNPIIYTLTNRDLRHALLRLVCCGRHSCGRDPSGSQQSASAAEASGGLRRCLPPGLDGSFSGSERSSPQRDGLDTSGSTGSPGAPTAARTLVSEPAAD
pEC50: −log10 of the molar value.
Collected pEC50 values appear next to each entry.

Some solved entries appear below for comparison.
- molecule: "Cc1cc(-c2ncc3c(n2)CCN(C[C@H](C)CC(=O)O)C3)ccc1OCc1ccccc1 [Compound 319]"
  pEC50: "6.00 to 7.00"
- molecule: "Cc1ccc(C(F)(F)F)cc1COc1ccc(-c2ccc3c(n2)CCN(CCC(=O)O)C3)cc1 [Compound 158]"
  pEC50: "7.00 to 8.00"
- molecule: "Cc1ccc(COc2ccc(-c3ncc4c(n3)CCN(CC(C)CC(=O)O)C4)cc2)cc1 (stereo not shown) [Compound 248]"
  pEC50: "> 8.00"

Consider the record given below.
// Cc1cc(-c2ncc3c(n2)CCN(CC(C)CC(=O)O)C3)ccc1OCc1ccccc1C(F)(F)F (stereo not shown) [Compound 309] : pEC50 value = 6.00 to 7.00

---

target: human S1PR5 receptor (Homo sapiens, UniProt Q9H228); construct: host or cells: CHO-K1; test: Method 1: intracellular Ca2+ release (FLIPR, Calcium 5) in recombinant CHO-K1 cells; format: cell-based; settings: agonist potency, determined with method 1 (symbols A-D); read-out: S1P5 EC50 range
pEC50: −log10 of the molar value.
measurementKind: pEC50

Some solved entries appear below for comparison.
- compound: "Cc1cc(-c2ncc3c(n2)CCN(CC(C)CC(=O)O)C3)ccc1OCc1c(C)cccc1C (centres unmarked)"
  measurement: "7.00 to 8.00"
- compound: "O=C(O)CN1CCc2nc(-c3ccc(OCc4ccc(Cl)cc4)cc3)ncc2C1"
  measurement: "6.00 to 7.00"
- compound: "O=C(O)CN1CCc2nc(-c3ccc(OCc4cccc(F)c4)cc3)ncc2C1"
  measurement: "7.00 to 8.00"
- compound: "O=C(O)CCN1CCc2nc(-c3ccc(OCc4ccc(F)c(F)c4)cc3)ncc2C1"
  measurement: "> 8.00"
- compound: "Cc1cc(-c2ncc3c(n2)CCN(CC(C)CC(=O)O)C3)ccc1OCc1cccc(C)c1C (centres unmarked)"
  measurement: "6.00 to 7.00"
- compound: "Cc1ccc(COc2ccc(-c3ncc4c(n3)CCN(CC(C)CC(=O)O)C4)cc2)cc1C(F)(F)F (centres unmarked)"
  measurement: "> 8.00"

// Cc1ccc(C(F)(F)F)c(COc2ccc(-c3ncc4c(n3)CCN(CC(C)CC(=O)O)C4)c(F)c2)c1 (centres unmarked) : pEC50 value = 6.00 to 7.00

// O=C(O)CC1CC(N2CCc3nc(-c4ccc(OCc5cc(Cl)cc(Cl)c5)cc4)ncc3C2)C1 (centres unmarked) : pEC50 value = 6.00 to 7.00

---

Collected EC50 values appear next to each entry.
molecular target: UniProt:P21453; test: Method 1: intracellular Ca2+ release (FLIPR, Calcium 5) in recombinant CHO-K1 cells; details: (1): determined with method 1; read-out: S1P1 EC50

Some solved entries appear below for comparison.
- compound: "O=C(O)C1CC(N2CCc3nc(C#Cc4ccc(OCc5ccccc5)cc4)ncc3C2)C1 (stereo not shown)"
  measurement: "> 1000 nM"
- compound: "O=C(O)CN1CCc2nc(-c3ccc(OCc4cccc(F)c4)cc3)ncc2C1"
  measurement: "> 1000 nM"
- compound: "Cc1cc(-c2cc3c(cn2)CN(CCC(=O)O)CC3)ccc1OCc1ccc(C(F)(F)F)cc1"
  measurement: "> 1000 nM"

Consider the record given below.
// `O=C(O)CCN1Cc2ccc(-c3cccc(OCc4cccc(F)c4)c3)nc2C1` : EC50 value = > 1000 nM
